Recorded values, source patent US20240059689A1.

- Test system: HCC1954
- protocol.description: Viability assay, BRCA1 WT cell line HCC1954
- Type: cell-based
- applied.conditions: Homo sapiens, HCC1954, viability, read-out: HCC1954 rel IC50
experimental.endpoint: IC50

Kindly state the measured IC50 obtained for `COc1ncnc(C2CC2)c1-c1ncc2c(n1)n(Cc1ccc(-n3nc(C(F)F)cc3OC)cc1)c(=N)n2CC(F)(F)F` with HCC1954.
≥ 10 µM

Record lookup: for HCC1954, what IC50 belongs to `CC(C)c1ccccc1-c1ncc2c(n1)n(Cc1ccc(-c3cc(Cl)cn3C)cc1)c(=N)n2C` ?
0.25 to 10 µM

// map `Cc1cnn(C(C)C)c1-c1ncc2c(n1)n(Cc1ccc(-c3nc(C(F)(F)F)cn3C)cc1)c(=N)n2CC(F)(F)F` to recorded IC50 (system: HCC1954)
≥ 10 µM

Lab request: please report IC50 under test system HCC1954 for `CC(C)c1ncccc1-c1ncc2c(n1)n(Cc1ccc(-c3nc(C(F)(F)F)cn3C)cc1)c(=N)n2C`
≥ 10 µM
